- experimentalTarget: Adenosine receptor A1 (Rattus norvegicus)
- Sequence (P25099 whole entry): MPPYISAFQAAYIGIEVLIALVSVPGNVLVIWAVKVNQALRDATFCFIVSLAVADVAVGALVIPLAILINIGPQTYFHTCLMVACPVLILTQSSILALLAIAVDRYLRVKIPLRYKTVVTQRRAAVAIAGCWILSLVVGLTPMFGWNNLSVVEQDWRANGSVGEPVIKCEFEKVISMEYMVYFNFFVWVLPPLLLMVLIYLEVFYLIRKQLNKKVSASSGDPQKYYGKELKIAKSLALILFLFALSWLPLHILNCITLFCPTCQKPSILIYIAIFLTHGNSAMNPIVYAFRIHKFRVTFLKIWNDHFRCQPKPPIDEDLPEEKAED
// IC50 lookup, one value per entry
readout: IC50

> print(dat)
                            molecularstring  measured
1  CCCn1c(=O)c2nc(-c3ccc(OCC(=O)O)cc3)[nH]c2n(Cc2ccc(N)c(I)c2)c1=O     37 nM
2  CCCn1c(=O)c2nc(-c3ccc(OCC(=O)O)cc3)[nH]c2n(Cc2ccc(N)cc2)c1=O     64 nM
3  CCCn1c(=O)n(Cc2ccc(N)cc2)c(=O)c2[nH]c(-c3ccc(OCC(=O)O)cc3)nc21     44 nM
4  CCCn1c(=O)c2nc(-c3ccc(OCC(=O)O)cc3)[nH]c2n(CCc2ccc(N)cc2)c1=O     37 nM

----------
- experimentalTarget: Adenosine A2 receptor (Homo sapiens, UniProt P29275+P29274)
- assayNotes: Inhibition of NECA binding to adenosine A2 receptor mediates reduced adenylate cyclase activity in human platelets
readout: Ki (µM)

> print(dat)
                            molecularstring  readout  measured
1  CCCn1c(=O)c2nc(-c3ccc(OCC(=O)O)cc3)[nH]c2n(Cc2ccc(N)c(I)c2)c1=O       Ki       0.7
2  CCCn1c(=O)n(Cc2ccc(N=[N+]=[N-])c(I)c2)c(=O)c2[nH]c(-c3ccc(OCC(=O)O)cc3)nc21       Ki       5.3
3  CCCn1c(=O)n(CCc2ccc(N)c(I)c2)c(=O)c2[nH]c(-c3ccc(OCC(=O)O)cc3)nc21       Ki        20
4  CCCn1c(=O)c2nc(-c3ccc(OCC(=O)O)cc3)[nH]c2n(CCc2ccc(N=[N+]=[N-])c(I)c2)c1=O       Ki       5.4
5  CCCn1c(=O)c2nc(-c3ccc(OCC(=O)O)cc3)[nH]c2n(Cc2ccc(N=[N+]=[N-])c(I)c2)c1=O       Ki       2.1
6  CCCn1c(=O)n(Cc2ccc(N)c(I)c2)c(=O)c2[nH]c(-c3ccc(OCC(=O)O)cc3)nc21       Ki       1.8
7  CCCn1c(=O)n(CCc2ccc(N)cc2)c(=O)c2[nH]c(-c3ccc(OCC(=O)O)cc3)nc21       Ki      11.5
8  CCCn1c(=O)c2nc(-c3ccc(OCC(=O)O)cc3)[nH]c2n(Cc2ccc(N)cc2)c1=O       Ki         1

----------
- experimentalTarget: Adenosine receptor A1 (Bos taurus)
- Sequence (P28190 whole entry): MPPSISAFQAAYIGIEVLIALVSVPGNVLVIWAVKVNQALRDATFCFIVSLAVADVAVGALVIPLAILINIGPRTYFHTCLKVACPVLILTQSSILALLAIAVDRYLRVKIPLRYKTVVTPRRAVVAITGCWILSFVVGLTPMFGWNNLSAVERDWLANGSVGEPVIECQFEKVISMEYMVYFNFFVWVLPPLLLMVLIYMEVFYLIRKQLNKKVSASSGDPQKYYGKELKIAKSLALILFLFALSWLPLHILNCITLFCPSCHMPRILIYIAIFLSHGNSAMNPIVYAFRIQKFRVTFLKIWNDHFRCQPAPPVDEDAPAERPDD
- assayNotes: Binding affinity for adenosine A1 receptor as inhibition of [125-I]-labeled aminobenzyl adenosine binding to bovine brain membranes
- Assay type: cell membranes
readout: Kd (nM)

> print(dat)
                            molecularstring  readoutunits  measured
1  CCCn1c(=O)n(CCc2ccc(N=[N+]=[N-])c(I)c2)c(=O)c2[nH]c(-c3ccc(OCC(=O)O)cc3)nc21            nM      2860
2  CCCn1c(=O)n(Cc2ccc(N=[N+]=[N-])c(I)c2)c(=O)c2[nH]c(-c3ccc(OCC(=O)O)cc3)nc21            nM       960
3  CCCn1c(=O)c2[nH]c(-c3ccc(OCC(=O)O)cc3)nc2n(CCC)c1=O            nM        17

----------
- experimentalTarget: Adenosine A2 receptor (Homo sapiens, UniProt P29275+P29274)
- assayNotes: Inhibition of NECA binding to adenosine A2 receptor mediates reduced adenylate cyclase activity in human platelets
Property: Ki; scope: individual compounds
readout: Ki (µM)

> print(dat)
                            molecularstring                        experimentaltarget  readout  relationaloperator  measured
1  CCCn1c(=O)n(CCc2ccc(N=[N+]=[N-])c(I)c2)c(=O)c2[nH]c(-c3ccc(OCC(=O)O)cc3)nc21  Adenosine A2 receptor (Homo sapiens, UniProt P29275+P29274)       Ki                   =      12.3
2  CCCn1c(=O)n(Cc2ccc(N)cc2)c(=O)c2[nH]c(-c3ccc(OCC(=O)O)cc3)nc21  Adenosine A2 receptor (Homo sapiens, UniProt P29275+P29274)       Ki                   =        23
3  CCCn1c(=O)c2nc(-c3ccc(OCC(=O)O)cc3)[nH]c2n(CCc2ccc(N)cc2)c1=O  Adenosine A2 receptor (Homo sapiens, UniProt P29275+P29274)       Ki                   =      11.5
4  Nc1ccc(CCn2c(=O)c3nc(-c4ccc(OCC(=O)O)cc4)[nH]c3n(CCc3ccc(N)cc3)c2=O)cc1  Adenosine A2 receptor (Homo sapiens, UniProt P29275+P29274)       Ki                   >       100
5  CCCn1c(=O)c2nc(-c3ccc(OCC(=O)O)cc3)[nH]c2n(CCc2ccc(N)c(I)c2)c1=O  Adenosine A2 receptor (Homo sapiens, UniProt P29275+P29274)       Ki                   =       5.3

----------
Listing of recorded pKd by entry.
- experimentalTarget: Adenosine receptor A1 (Bos taurus)
- assayNotes: Displacement of [125-I]-labeled aminobenzyl adenosine binding to adenosine A1 receptor of bovine brain membranes
- Assay type: cell membranes
pKd: −log10 of the molar value.
readout: pKd

> print(dat)
                             molecularstring  measured
 1  Nc1ccc(CCn2c(=O)c3nc(-c4ccc(OCC(=O)O)cc4)[nH]c3n(CCc3ccc(N)cc3)c2=O)cc1      5.44
 2  CCCn1c(=O)n(CCc2ccc(N)cc2)c(=O)c2[nH]c(-c3ccc(OCC(=O)O)cc3)nc21      5.64
 3  CCCn1c(=O)c2nc(-c3ccc(OCC(=O)O)cc3)[nH]c2n(CCc2ccc(N)cc2)c1=O      7.22
 4  CCCn1c(=O)n(Cc2ccc(N)c(I)c2)c(=O)c2[nH]c(-c3ccc(OCC(=O)O)cc3)nc21      6.80
 5  CCCn1c(=O)n(CCc2ccc(N)c(I)c2)c(=O)c2[nH]c(-c3ccc(OCC(=O)O)cc3)nc21      5.51
 6  CCCn1c(=O)n(Cc2ccc(N)cc2)c(=O)c2[nH]c(-c3ccc(OCC(=O)O)cc3)nc21      7.36
 7  CCCn1c(=O)c2nc(-c3ccc(OCC(=O)O)cc3)[nH]c2n(Cc2ccc(N)cc2)c1=O      7.49
 8  CCCn1c(=O)c2nc(-c3ccc(OCC(=O)O)cc3)[nH]c2n(Cc2ccc(N)c(I)c2)c1=O      7.43
 9  CCCn1c(=O)c2nc(-c3ccc(OCC(=O)O)cc3)[nH]c2n(CCc2ccc(N=[N+]=[N-])c(I)c2)c1=O      7.62
10  CCCn1c(=O)c2nc(-c3ccc(OCC(=O)O)cc3)[nH]c2n(CCc2ccc(N)c(I)c2)c1=O      7.54
